target desc: Regulator of G-protein signaling 17 (Homo sapiens, UniProt Q9UGC6, C117A)
Sequence (Q9UGC6 whole entry C117A): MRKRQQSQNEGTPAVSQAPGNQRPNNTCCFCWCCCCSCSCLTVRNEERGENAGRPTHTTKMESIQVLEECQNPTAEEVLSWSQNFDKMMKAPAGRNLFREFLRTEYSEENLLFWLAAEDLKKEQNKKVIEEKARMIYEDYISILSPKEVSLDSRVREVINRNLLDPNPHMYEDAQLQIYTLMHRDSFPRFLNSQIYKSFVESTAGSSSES
measurement notes: Inhibition of RGS17 (unknown origin) C117A mutant interaction with biotinylated Galphao after 30 mins in presence of AMF and GDP by AlphaScreen assay
pIC50: −log10 of the molar value.

smiles structure: C[n+]1cc2c3c(ccc2c2ccc4cc5c(cc4c21)OCO5)OCO3
pIC50: < 4.00

smiles structure: O=c1c(-c2cc(O)c(O)c(O)c2)coc2cc(O)c(O)c(O)c12
pIC50: 4.09

smiles structure: CC1=C(O)C(=O)C=C2C1=CC=C1[C@@]2(C)CC[C@@]2(C)[C@@H]3C[C@](C)(C(=O)O)CC[C@]3(C)CC[C@]12C
pIC50: < 4.00
